Sourced from a melting point compilation (Tetko et al.)

melting point values for the compounds below.

Take a look at these entries with their results.
> print(dat)
                         compound  value.reported
1        CC(N)P(=O)(O)O (racemic)   283 to 284 °C
2  O=c1ccc2cc([N+](=O)[O-])ccc2o1   190 to 192 °C
3  Cc1ccc(OC(C)(C)C(=O)O)c2c1CCC2     89 to 90 °C
4                   CCN(CC)C(N)=O     66 to 71 °C
5      O=C(O)CN1C(=O)c2ccccc2C1=O   195 to 198 °C
6        NC(=S)CS(=O)(=O)Cc1ccco1   128 to 130 °C

Note: attention shifts to another entry.
Inquiry: Hello, please tell me recorded melting point for this one: Cc1nc(C2CCN(C(=O)OC(C)(C)C)CC2)sc1CO
Reply text: 150 to 153 °C

====

melting point values by entry
Report only the number, with the unit °C understood.

Consider the reported melting point for these compounds:
> print(dat)
                                   compound  measurement.units  value.reported
1                       c1c2c(cc3c1OCO3)CC2                 °C              62
2  O=C(OCC(COC(=O)c1ccccc1)OC(=O)c1ccccc1)c1ccccc1                 °C              76
3                    COc1cc2ccc(=O)oc2cc1OC                 °C             146
4                        Cc1cc2c(cc1C)CCCC2                 °C              10
5  Cc1ccc2cc3c(cc2n1)CCC(C)N3 (stereo unspecified)                 °C             171

Inquiry: Provide one value: measured melting point of O=[N+]([O-])c1ccc(Cc2ccccn2)c([N+](=O)[O-])c1
Reply text: 92

Inquiry: Give reported melting point value for CN(C)c1ccc(/C=N/n2c(S)nnc2C(F)(F)F)cc1
Reply text: 200

Inquiry: Give the reported melting point for this compound. CC(CCC(=O)O)C1CCC2=C3CCC4CC(O)CCC4(C)C3CC(O)C21C (stereo unspecified)
Reply text: 172

====

value_type: melting point

> print(dat)
                                   compound     value.type  value.reported
1          CC(=O)c1ccn(S(=O)(=O)c2ccccc2)c1  melting point     89 to 92 °C
2  O=c1cc(C=C(O)C(F)(F)C(F)(F)F)[nH]c(=O)[nH]1  melting point   278 to 281 °C

Inquiry: Kindly indicate its recorded melting point. Item: COC1=C(OC)C(C(O)COS(=O)(=O)c2ccc(C)cc2)OC1=O (centres undefined)
Reply text: 88 to 90 °C

Inquiry: Name the recorded melting point of the item CS(=O)(=O)c1noc(-c2cccs2)c1C#N in your answer.
Reply text: 167 to 168 °C

====

value_type: melting point

Previously resolved entries follow.
> print(dat)
                                    compound     value.type  value.reported
 1                       NC(=S)Nc1cccc(Cl)c1  melting point   137 to 138 °C
 2                     Brc1ccccc1-c1nnn[nH]1  melting point   182 to 184 °C
 3                        Oc1ccc(Cl)c2c1CCC2  melting point           92 °C
 4                       Nc1ccc(Cn2cncn2)cc1  melting point   124 to 126 °C
 5        Cc1cc(C)n(N=Cc2ccccc2Cl)c(=O)c1C#N  melting point   233 to 235 °C
 6  O=[N+]([O-])c1ccccc1SC1OC(CO)C(O)C(O)C1O (centres undefined)  melting point   196 to 203 °C
 7     CC(C)(C)OC(=O)N1CCC(OCC(=O)NC2CC2)CC1  melting point           86 °C
 8  COC(=O)C1CC2(C(=O)OC)C=CC1C2 (centres undefined)  melting point           38 °C
 9  CCC(CCC(C)C1CCC2C3CC=C4CC(O)CCC4(C)C3CCC12C)C(C)C (centres undefined)  melting point          147 °C
10         C=C(Br)CC1(C(C)C)C(=O)NC(=O)NC1=O  melting point          177 °C

Inquiry: Return melting point (reported value) for this compound: C1COCO1
Reply text: -26 °C

Inquiry: Report melting point, nothing else, for this compound: COc1ccc(Br)cc1S(=O)(=O)Cl
Reply text: 114 °C

Inquiry: Give the value of melting point reported for the following: COC(=O)[C@@H]1C[C@@H](O)CN1C(=O)OC(C)(C)C
Reply text: 91 to 96 °C

Inquiry: Name the recorded melting point of the item COC(=O)CC(=O)CCl in your answer.
Reply text: 14 to 16 °C

Inquiry: Consider the compound N#CC=Cc1cc(C(F)(F)F)cc(C(F)(F)F)c1 and give its recorded melting point.
Reply text: 80 °C

Inquiry: Give me measured melting point, please, for this compound: Ic1cn[nH]c1
Reply text: 109 °C

Inquiry: Entry COc1cc(OC)c2c(=O)c(=O)c2c1 needs its melting point filled in; supply it.
Reply text: 149 °C

Inquiry: Please report melting point for the following compound: O=C(c1ccc(Cl)cc1)c1noc(-c2cccc3ccccc23)c1S(=O)(=O)c1ccccc1
Reply text: 150 °C

Inquiry: State, in one line, measured melting point of N#CCSc1ccc(F)cc1
Reply text: 34 °C

====

// values below are reported melting point

Below, each entry is followed by its recorded melting point result.
> print(dat)
                                   compound     value.type  value.reported
1                 O=C(Cl)c1cc(-c2ccccc2)on1  melting point     86 to 88 °C
2              O=S(=O)(c1ccc(Cl)cc1)n1cccc1  melting point   116 to 118 °C
3  COc1cccc2cc(C(=NO)c3cc4cccc(OC)c4o3)oc12  melting point   214 to 215 °C

Inquiry: Report melting point for CCOC(=O)c1cc(C(=O)OCC)[nH]n1
Reply text: 51 to 55 °C

Inquiry: In one line, give reported melting point of the entry CC(=O)Nc1c(C(=O)Cc2c(C)cc(C)cc2C)oc2ccccc12 .
Reply text: 161 to 162 °C

====

Listed here are compounds together with their documented melting point.

Completed entries (count: 3):
> print(dat)
                                   compound     value.type  value.reported
1  CC1(c2ccccc2)CC(C(=NNC(O)=S)c2cc3ccccc3o2)C1 (centres undefined)  melting point   191 to 192 °C
2                  Clc1ncnc2sc3c(c12)CCCCC3  melting point     64 to 65 °C
3                    CCCCc1nc(CO)c(Cl)[nH]1  melting point   150 to 152 °C

Next compound, melting point to be filled in.
Inquiry: Quick one: give measured melting point for CC(C)(C)OC(=O)N1CCN(Cc2ccc(C(=O)O)cc2)CC1
Reply text: 196 to 204 °C

====

melting point values by entry

Previously resolved entries follow.
> print(dat)
                                   compound     value.type  value.reported
1                       Cc1ccc(-c2csnn2)cc1  melting point     73 to 75 °C
2  O=C1CCC2OCC(c3ccccc3)N12 (stereo not drawn)  melting point     76 to 80 °C

// moving on: another record for melting point
Inquiry: Tell us which melting point value is on record for O=C(O)Cc1noc2ccccc12
Reply text: 123 to 125 °C

====

# reported melting point; entries follow

> print(dat)
                  compound  value.reported
1  Cn1c(C(F)(F)F)n[nH]c1=S   116 to 118 °C
2    Cc1n[nH]c(=S)n(N)c1=O   183 to 184 °C

Inquiry: Tell us which melting point value is on record for Clc1ccc2nonc2c1
Reply text: 37 to 40 °C

Inquiry: Dear colleague, please send me the reported melting point for CC(=O)Nc1ccc(C(F)(F)F)cc1Br when you can.
Reply text: 144 to 146 °C

Inquiry: Item NC(CCP(=O)(O)O)C(=O)O (racemic) : provide melting point
Reply text: 225 to 228 °C

Inquiry: Quote melting point reported for C#Cc1ccc(C(C)=O)cc1 please.
Reply text: 68 to 70 °C

====

Measured melting point accompanies every entry in the list below.

Here are 5 compounds together with their reported answers.
> print(dat)
                                   compound  value.reported
1               Cc1cccc2c1-c1nc3ccccc3nc1-2   134 to 136 °C
2           COn1c(C)c(C(C)=O)c2c3nonc3ccc21   201 to 203 °C
3  CN(C)c1ccc(-c2c(C#N)c(N)n(N)c(=O)c2C#N)cc1   328 to 330 °C
4          CCCC(=O)c1cc2cc(Br)cc(Br)c2oc1=O   200 to 202 °C
5  CC1CC(=Cc2ccccc2)C(=O)C(=Cc2ccccc2)C1 (stereo unspecified)   100 to 101 °C

Please examine the following record next.
Inquiry: // Input: COc1ccc2c(c1)CC1(CCC(O)(c3ccc(C(C)(C)C)cc3)CC1)C2=O (stereo unspecified) . Output its melting point only.
Reply text: 183 to 184 °C
